B1: POU domain, class 2, transcription factor 2, residues 200 to 269; numbered along this chain, P09086 (parent)
chain: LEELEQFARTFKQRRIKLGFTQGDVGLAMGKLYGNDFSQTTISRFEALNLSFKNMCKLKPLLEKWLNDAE

- Variants of: B1
- measurement.notes: abundance fitness (aPCA) (normalised: wild type 0, dead -1); higher = more abundant; growth selection in yeast, the domain comes from the species named
- setup.conditions: Homo sapiens
Outcome: class 1 for abundance fitness of at least -0.07; class 0 for anything lower.

>>> df
    mutation_notation  class_label
 0               S51E      class 1
 1               F37Q      class 1
 2                A8V      class 1
 3               K53G      class 1
 4                Q6M      class 1
 5                Q6T      class 1
 6               L66E      class 0
 7               L58D      class 0
 8               P60K      class 0
 9               L27N      class 1
10               N35V      class 0
11               G19C      class 0
12               K57L      class 0
13               L58S      class 0
14               K12N      class 0
15               K53C      class 0
16               I42R      class 0
17               M55Y      class 0
18               R15L      class 0
19               S43D      class 1
20               L66G      class 0
21               T10Q      class 1
22               L58I      class 1
23               G26M      class 0
24               L50V      class 1
25               S38P      class 1
26               K64N      class 0
27               D68C      class 1
28                L1T      class 1
29               K31Q      class 1
30               Q22S      class 0
31               L62M      class 1
32               K31M      class 0
33               L18D      class 0
34               T40L      class 0
35               L18P      class 0
36               M29W      class 0
37               L50T      class 1
38               F52G      class 1
